tested on: G-clamp-N3 (biotin conjugate); assay: pull-down binding Z-score (relative to library population); higher = stronger binding; conditions: RNA library: Library-1 (pre-miRNA loops + repeats)
Label rule, in plain words: pull-down binding Z-score of -0.7 and up is criterion met, under -0.7 is criterion not met.

Record excerpt, results attached:
Problem: Given the entry CUGGGGACUGUGUGGACUGGUAUCACCCAG [hsa-mir-2278] , answer whether its pull-down binding Z-score meets or surpasses -0.7.
Solution: criterion met

Problem: Given the entry CUGCAGGGACUGUGACACUGAA [hsa-mir-6816] , answer whether its pull-down binding Z-score meets or surpasses -0.7.
Solution: criterion met

Problem: Given the entry AUUCAGACUCAGGU [hsa-mir-921] , answer whether its pull-down binding Z-score meets or surpasses -0.7.
Solution: criterion met

Problem: Given the entry UUUGCUAUUUUUUUUUAAUGGCAAA [hsa-mir-548ac] , answer whether its pull-down binding Z-score meets or surpasses -0.7.
Solution: criterion met

Problem: Given the entry CAAUCACAUGUAAUUAGGUGUGAUUG [hsa-mir-510] , answer whether its pull-down binding Z-score meets or surpasses -0.7.
Solution: criterion met

Problem: Given the entry CUGGCUUCUCUGGUUCUCCAGCUUACAG [hsa-mir-1269b] , answer whether its pull-down binding Z-score meets or surpasses -0.7.
Solution: criterion not met

Problem: Given the entry UUGGCGUUAAGAUUCUAAAAUUAUCUCCAG [hsa-mir-16-1] , answer whether its pull-down binding Z-score meets or surpasses -0.7.
Solution: criterion not met

Problem: Given the entry UGAGCAGGGUCCACACCAAGUCGUGUUCA [hsa-mir-27a] , answer whether its pull-down binding Z-score meets or surpasses -0.7.
Solution: criterion met

Problem: Given the entry GAGGGGCAUGCACUGUGUUCACCCUG [hsa-mir-134] , answer whether its pull-down binding Z-score meets or surpasses -0.7.
Solution: criterion met

Problem: Given the entry CUGGCUGGUCCAGCCCCUCAGAAG [hsa-mir-6796] , answer whether its pull-down binding Z-score meets or surpasses -0.7.
Solution: criterion not met

More entries:
Problem: Given the entry GUUCGCUUAAUUUAUGACGAAUC [hsa-mir-487a] , answer whether its pull-down binding Z-score meets or surpasses -0.7.
Solution: criterion met

Problem: Given the entry GUUUCUGUUGUCUGAAAGGAAAGAAAG [hsa-mir-520e] , answer whether its pull-down binding Z-score meets or surpasses -0.7.
Solution: criterion not met

Problem: Given the entry CAUACAUAUGCCUACUACUACUUUCAUAUGUAGGCAUAUGUAUG [hsa-mir-7852] , answer whether its pull-down binding Z-score meets or surpasses -0.7.
Solution: criterion met

Problem: Given the entry UGGGUUAAGCCGAGCUGG [hsa-mir-4507] , answer whether its pull-down binding Z-score meets or surpasses -0.7.
Solution: criterion met

Problem: Given the entry UCCCCUAGCGCGCCUUCUGGAGA [hsa-mir-3188] , answer whether its pull-down binding Z-score meets or surpasses -0.7.
Solution: criterion met

Problem: Given the entry CUUUUAUAUCAAGGCACAUAAAAG [hsa-mir-3910-1] , answer whether its pull-down binding Z-score meets or surpasses -0.7.
Solution: criterion not met

Entry source: the supplement of paper PMC11865577
